Molecular target: BRD4^BD2 (Homo sapiens, UniProt O60885)
Construct: to the isolated BD1 and BD2 domains of BRD2, BRD3 and BRD4
Experiment: competitive fluorescence polarization assay, BRD4 BD2 -/+ presenter protein
Format: binding
Settings: absence of FKBP12; 2 nM JQ1-FL tracer; read-out: Binding to BRD4^BD2 - FKBP12 Kd
Measured Kd by item

Cc1sc2c(c1C)C(c1ccc(Cl)cc1)=NC(CC(=O)N1CCC3(CC1)CC(n1cc(C4CN(Cc5ccccn5)C(=O)C5CCCC4N5S(=O)(=O)c4cc(Cl)cc(Cl)c4)nn1)C3)c1nnc(C)n1-2 (centres unmarked) [a13c] :: 2300 nM
C=CC1CN(Cc2cn(CCOCCOCCNC(=O)CC3N=C(c4ccc(Cl)cc4)c4c(sc(C)c4C)-n4c(C)nnc43)nn2)C(=O)C2CCCC1N2S(=O)(=O)c1cc(Cl)cc(Cl)c1 (centres unmarked) [a2i] :: 140 nM
Cc1sc2c(c1C)C(c1ccc(Cl)cc1)=NC(CC(=O)NCCOCCn1cc(COC(C)C3CN(Cc4ccccn4)C(=O)C4CCCC3N4S(=O)(=O)c3cc(Cl)cc(Cl)c3)nn1)c1nnc(C)n1-2 (centres unmarked) [a1f] :: 50 nM
Cc1sc2c(c1C)C(c1ccc(Cl)cc1)=NC(CC(=O)NCCOCCOCCn1cc(C3CN(Cc4ccccn4)C(=O)C4CCCC3N4S(=O)(=O)c3cc(Cl)cc(Cl)c3)nn1)c1nnc(C)n1-2 (centres unmarked) [a2c] :: 510 nM
C=CC1CN(Cc2cn(CCOCCNC(=O)CC3N=C(c4ccc(Cl)cc4)c4c(sc(C)c4C)-n4c(C)nnc43)nn2)C(=O)C2CCCC1N2S(=O)(=O)c1cc(Cl)cc(Cl)c1 (centres unmarked) [a1i] :: 910 nM
Cc1sc2c(c1C)C(c1ccc(Cl)cc1)=NC(CC(=O)N1CCC(N3CCC(Cn4cc(C5CN(Cc6ccccn6)C(=O)C6CCCC5N6S(=O)(=O)c5cc(Cl)cc(Cl)c5)nn4)CC3)CC1)c1nnc(C)n1-2 (centres unmarked) [a10c] :: 170 nM
C=CC1CN(Cc2ccccn2)C(=O)C2CCCC1N2S(=O)(=O)c1ccc(-c2cn(CCOCCNC(=O)CC3N=C(c4ccc(Cl)cc4)c4c(sc(C)c4C)-n4c(C)nnc43)nn2)c(Cl)c1 (centres unmarked) [a1h] :: 52 nM
Cc1sc2c(c1C)C(c1ccc(Cl)cc1)=NC(CC(=O)N1CCC(CN3CCC(Cn4cc(C5CN(Cc6ccccn6)C(=O)C6CCCC5N6S(=O)(=O)c5cc(Cl)cc(Cl)c5)nn4)CC3)CC1)c1nnc(C)n1-2 (centres unmarked) [a8c] :: 190 nM

# Kd (compound: Cc1sc2c(c1C)C(c1ccc(Cl)cc1)=NC(CC(=O)N1CCC(CN3CCC(n4cc(C5CN(Cc6ccccn6)C(=O)C6CCCC5N6S(=O)(=O)c5cc(Cl)cc(Cl)c5)nn4)CC3)CC1)c1nnc(C)n1-2 (centres unmarked) [a7c] ) is 700 nM

# Kd (compound: C=CC1CN(Cc2ccccn2)C(=O)C2CCCC1N2S(=O)(=O)c1cc(Cl)cc(-c2cn(CCOCCOCCNC(=O)CC3N=C(c4ccc(Cl)cc4)c4c(sc(C)c4C)-n4c(C)nnc43)nn2)c1 (centres unmarked) [a2g] ) is 580 nM

# Kd (compound: Cc1sc2c(c1C)C(c1ccc(Cl)cc1)=NC(CC(=O)NCCOCCn1cc(COC(C)C3CN(Cc4ccccn4)C(=O)C4CCCC3N4S(=O)(=O)c3cc(Cl)cc(Cl)c3)nn1)c1nnc(C)n1-2 (centres unmarked) [a1e] ) is 33 nM

# Kd (compound: Cc1sc2c(c1C)C(c1ccc(Cl)cc1)=NC(CC(=O)NCCOCCn1cc(COCC3CN(Cc4ccccn4)C(=O)C4CCCC3N4S(=O)(=O)c3cc(Cl)cc(Cl)c3)nn1)c1nnc(C)n1-2 (centres unmarked) [a1d] ) is 320 nM

# Kd (compound: Cc1sc2c(c1C)C(c1ccc(Cl)cc1)=NC(CC(=O)N1CCC(N3CCC(n4cc(COCC5CN(Cc6ccccn6)C(=O)C6CCCC5N6S(=O)(=O)c5cc(Cl)cc(Cl)c5)nn4)CC3)CC1)c1nnc(C)n1-2 (centres unmarked) [a9d] ) is 500 nM

# Kd (compound: C=C[C@H]1CN(Cc2ccccn2)C(=O)[C@@H]2CCC[C@H]1N2S(=O)(=O)c1ccc(-c2cn(CCOCCOCCNC(=O)C[C@@H]3N=C(c4ccc(Cl)cc4)c4c(sc(C)c4C)-n4c(C)nnc43)nn2)c(Cl)c1 [a2h] ) is 46 nM

###

Measured pKd by item
Target: BRD3BD1 (Homo sapiens)
Construct: to the isolated BD1 and BD2 domains of BRD2, BRD3 and BRD4
Sequence (Q15059 34-140 limits assumed): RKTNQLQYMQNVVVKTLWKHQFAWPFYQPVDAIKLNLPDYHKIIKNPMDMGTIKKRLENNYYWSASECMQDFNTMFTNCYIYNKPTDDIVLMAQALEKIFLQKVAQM
Assay: competitive FP assay, BRD3 BD1 -/+ FKBP12
Assay type: binding
Conditions: 15 µM FKBP12; read-out: Binding to BRD3BD1 + FKBP12 Kd
Please treat pKd as minus the base-10 logarithm of the molar concentration.

Would you please look over these solved cases?
Cc1sc2c(c1C)C(c1ccc(Cl)cc1)=NC(CC(=O)NCCOCCn1cc(COCC3CN(C(C)c4ccccn4)C(=O)C4CCCC3N4S(=O)(=O)c3cc(Cl)cc(Cl)c3)nn1)c1nnc(C)n1-2 (stereo not shown) :: 7.60
Cc1sc2c(c1C)C(c1ccc(Cl)cc1)=NC(CC(=O)NCCOCCn1cc(COCC3CN(Cc4ccccn4)C(=O)C4CCCC3N4S(=O)(=O)c3cc(Cl)cc(Cl)c3)nn1)c1nnc(C)n1-2 (stereo not shown) :: 7.64
Cc1sc2c(c1C)C(c1ccc(C#CCNC(=O)COCCn3cc(C4CN(Cc5ccccn5)C(=O)C5CCCC4N5S(=O)(=O)c4cc(Cl)cc(Cl)c4)nn3)cc1)=NC(CC(=O)OC(C)(C)C)c1nnc(C)n1-2 (stereo not shown) :: 7.89

# pKd (compound: Cc1sc2c(c1C)C(c1ccc(Cl)cc1)=NC(CC(=O)N1CCC3(CC1)CC(n1cc(C4CN(Cc5ccccn5)C(=O)C5CCCC4N5S(=O)(=O)c4cc(Cl)cc(Cl)c4)nn1)C3)c1nnc(C)n1-2 (stereo not shown) [a13c] ) is 7.25

###

Measured α BRD4^BD1 (binding cooperativity factor) by item
Target: BRD4^BD1 (Homo sapiens)
Construct: to the isolated BD1 and BD2 domains of BRD2, BRD3 and BRD4
Assay: competitive fluorescence polarization assay, BRD4 BD1 -/+ presenter protein
Format: binding
Details: ratio of binding in absence or presence of FKBP12
// no unit string in output, number only

Would you please look over these solved cases?
Cc1sc2c(c1C)C(c1ccc(Cl)cc1)=NC(CC(=O)NCCOCCn1cc(C3CN(Cc4ccccn4)C(=O)C4CCCC3N4S(=O)(=O)c3cc(Cl)cc(Cl)c3)nn1)c1nnc(C)n1-2 (stereo not shown) [a1c] :: 0.3
Cc1sc2c(c1C)C(c1ccc(Cl)cc1)=NC(CC(=O)N1CCC(N3CCC(Cn4cc(C5CN(Cc6ccccn6)C(=O)C6CCCC5N6S(=O)(=O)c5cc(Cl)cc(Cl)c5)nn4)CC3)CC1)c1nnc(C)n1-2 (stereo not shown) [a10c] :: 0.1
Cc1sc2c(c1C)C(c1ccc(Cl)cc1)=NC(CC(=O)N1CCN(CCn3cc(COCC4CN(Cc5ccccn5)C(=O)C5CCCC4N5S(=O)(=O)c4cc(Cl)cc(Cl)c4)nn3)CC1)c1nnc(C)n1-2 (stereo not shown) [a4d] :: 1.3
Cc1sc2c(c1C)C(c1ccc(Cl)cc1)=NC(CC(=O)NCCOCCn1cc(COCC3CN(Cc4ccccn4)C(=O)C4CCCC3N4S(=O)(=O)c3cc(Cl)cc(Cl)c3)nn1)c1nnc(C)n1-2 (stereo not shown) [a1d] :: 18
Cc1sc2c(c1C)C(c1ccc(Cl)cc1)=NC(CC(=O)NCCOCCn1cc(COCC3CN(C(C)c4ccccn4)C(=O)C4CCCC3N4S(=O)(=O)c3cc(Cl)cc(Cl)c3)nn1)c1nnc(C)n1-2 (stereo not shown) [a1dj] :: 12
Cc1sc2c(c1C)C(c1ccc(Cl)cc1)=NC(CC(=O)N1CCC(N3CCC(Cn4cc(COCC5CN(Cc6ccccn6)C(=O)C6CCCC5N6S(=O)(=O)c5cc(Cl)cc(Cl)c5)nn4)CC3)CC1)c1nnc(C)n1-2 (stereo not shown) [a10d] :: 1.4

# α BRD4^BD1 (binding cooperativity factor) (molecule: Cc1sc2c(c1C)C(c1ccc(Cl)cc1)=NC(CC(=O)NCCOCCn1cc(COCC3CN(CC(=O)N4CCC(C)CC4)C(=O)C4CCCC3N4S(=O)(=O)c3cc(Cl)cc(Cl)c3)nn1)c1nnc(C)n1-2 (stereo not shown) [a1dk] ) is 2.6

# α BRD4^BD1 (binding cooperativity factor) (molecule: Cc1sc2c(c1C)C(c1ccc(Cl)cc1)=NC(CC(=O)N1CCC(CN3CCC(n4cc(C5CN(Cc6ccccn6)C(=O)C6CCCC5N6S(=O)(=O)c5cc(Cl)cc(Cl)c5)nn4)CC3)CC1)c1nnc(C)n1-2 (stereo not shown) [a7c] ) is 2.9

# α BRD4^BD1 (binding cooperativity factor) (molecule: Cc1sc2c(c1C)C(c1ccc(Cl)cc1)=NC(CC(=O)N1CCN(CCCn3cc(COCC4CN(Cc5ccccn5)C(=O)C5CCCC4N5S(=O)(=O)c4cc(Cl)cc(Cl)c4)nn3)CC1)c1nnc(C)n1-2 (stereo not shown) [a5d] ) is 2.5

# α BRD4^BD1 (binding cooperativity factor) (molecule: Cc1sc2c(c1C)C(c1ccc(C#CCNC(=O)COCCn3cc(C4CN(Cc5ccccn5)C(=O)C5CCCC4N5S(=O)(=O)c4cc(Cl)cc(Cl)c4)nn3)cc1)=NC(CC(=O)OC(C)(C)C)c1nnc(C)n1-2 (stereo not shown) [b3c] ) is 16
